- Protocol description: AGP1-GFP expression modulators, hit retest, confirmation, cell-based, flow cytometry, S. cerevisiae, cherry picks (AID 2273);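 also: median GFP channel fluorescence over the whole cell population gate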
- Run parameters: S. cerevisiae AGP1-GFP strain, 3 h, at 10 µM
Quick list: GFP response, % of DMSO per entry.
Numeric only. Scale: %

> print(dat)
                                   compound               value.type  unit.of.measure  reading
1          CN1C(=O)c2cccc3c(Cl)ccc(c23)C1=O  GFP response, % of DMSO                %     92.4
2  O=C1C(Cl)=C(N2CCN(Cc3ccccc3)CC2)C(=O)N1Cc1ccccc1  GFP response, % of DMSO                %      102
3       N#C/C(=C\c1ccc(N2CCOCC2)o1)c1ccccc1  GFP response, % of DMSO                %     93.8
4  CCCN1CCc2c(sc(NC(=S)NC(=O)c3ccccc3)c2C#N)C1  GFP response, % of DMSO                %      102
5  O=C(c1cc([N+](=O)[O-])cc([N+](=O)[O-])c1)N(Cc1nnc(-c2ccccc2Cl)o1)C1CC1  GFP response, % of DMSO                %     97.2

I have this compound here, O=C(NCc1cccnc1)c1cnc2n(c1=O)CCS2 , and I need its recorded GFP response, % of DMSO. 102

Recorded GFP response, % of DMSO of COc1ccccc1N=Cc1nc(-c2ccccc2)oc1OC(C)=O , please. 70.7

Look up GFP response, % of DMSO for this compound: CCCc1[nH]nc2c1C(c1ccc(OC)cc1OC)C(C#N)=C(N)O2 (stereo not drawn) 90.4
